# normalised cell number per record follows
assay: differential killing of epithelial or mesenchymal cells, primary screen, imaging, PC-3E GFP, TEM4-18 mCherry, co-culture (AID 1345086); conditions: imaging cell counts, measured here: epithelial PC-3E GFP cell survival, at 1 µM;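 also: cells exposed to compound for 72 h before imaging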
Non-standard residues stand in square brackets, D forms with d. Residues, ends and D or L forms follow the SMILES beside them. pGlu = O=C1CC[C@@H](C(=O)O)N1; Thz = O=C(O)[C@@H]1CSCN1
Endpoint Name: normalised cell number

Compound | Endpoint Name | Reported Value
CC(=O)O[C@H]1CC[C@@]2(C)C(=CCC3C2CC[C@@]2(C)C3CC[C@@H]2C(C)CCCC(C)C)C1 (some centres not stated) | normalised cell number | 0.99
Nc1ccccc1S(N)(=O)=O | normalised cell number | 1.18
O=C1[C@H](CCC(O)c2ccc(F)cc2)[C@@H](c2ccc(O)cc2)N1c1ccc(F)cc1 (some centres not stated) | normalised cell number | 0.87
FC(F)(F)COCC(F)(F)F | normalised cell number | 1.25
COc1cc(OC)c2c(O)c(C(C)=O)c(C)cc2c1 | normalised cell number | 1.08
COc1cc(O)c2c(=O)c(OC)c(-c3ccc(OC)c(OC)c3)oc2c1 | normalised cell number | 0.82
C=C1[C@@H](C)C2[C@H](Cc3c[nH]c4ccccc34)NC(=O)[C@]23C(=O)/C=C/[C@H](O)C(=O)/C(C)=C/[C@@H](C)C/C=C/[C@H]3[C@@H]1O (some centres not stated) | normalised cell number | 0.96
O=c1cc(-c2ccccc2)oc2cccc(O)c12 | normalised cell number | 1.1
C[N+]1(C)C2CC(OC(=O)[C@@H](CO)c3ccccc3)CC1C1OC12 (some centres not stated) | normalised cell number | 0.85
C[C@@H]1OC(O[C@H]2[C@H](O)[C@@H](O)[C@H](OC[C@H]3O[C@@H](OC(=O)[C@]45CCC(C)(C)CC4C4=CCC6[C@@]7(C)CC[C@H](OC8OC[C@H](O)[C@H](O)[C@H]8OC8O[C@@H](C)[C@H](O)[C@@H](O)[C@H]8O)[C@@](C)(CO)C7CC[C@@]6(C)[C@]4(C)CC5)[C@H](O)[C@@H](O)[C@@H]3O)O[C@@H]2CO)[C@H](O)[C@H](O)[C@H]1O (some centres not stated) | normalised cell number | 0.96
COC1=CC[C@@]2(C)[C@@](O)(CC[C@H]3Cc4c([nH]c5ccccc45)[C@@]32C)[C@@]12CC(=O)[C@](O)(C(C)(C)OC(C)=O)O2 | normalised cell number | 1.15
O=C(O)/C=C/C=C/c1ccc2c(c1)OCO2 | normalised cell number | 0.9
O=C1CC[C@@H](C(=O)N2CSC[C@H]2C(=O)O)N1 ([pGlu]-[Thz]-OH) | normalised cell number | 0.97
CC(=O)[C@H]1CCC2C3CCC4=CC(=O)CC[C@]4(C)C3CC[C@@]21C (some centres not stated) | normalised cell number | 1.15
O=c1[nH]cnc2c1ncn2C1O[C@H](CO)[C@@H](O)[C@H]1O (some centres not stated) | normalised cell number | 0.83
CC(C)CC1OC23SCC(c4ccccc4)N2C(=O)C1C(C)S3 (configuration not stated) | normalised cell number | 1.19
CCOC(=O)CC(=O)N1CCSC1COc1ccccc1OC (configuration not stated) | normalised cell number | 0.9
CCOC(=O)COc1ccc2c(=O)cc(-c3ccccc3)oc2c1 | normalised cell number | 0.88
O=C(c1ccc(OCCN2CCCCC2)cc1)c1c(-c2ccc(O)cc2)sc2cc(O)ccc12 | normalised cell number | 0.9
C[C@H]1CC2C([C@@H](O)C[C@@]3(C)C2CC[C@]3(O)C(=O)CO)[C@@]2(C)C=CC(=O)C=C12 (some centres not stated) | normalised cell number | 1.36
C[C@]12CCC(=O)C=C1CCC1C2[C@@H](O)C[C@@]2(C)C1CC[C@]2(O)C(=O)COC(=O)CCC(=O)O (some centres not stated) | normalised cell number | 0.86
COc1cc(NS(C)(=O)=O)ccc1Cc1c2ccccc2nc2ccccc12 | normalised cell number | 0.32
COC(=O)/C(=C1\OC(=O)C(c2ccccc2)=C1O)c1ccccc1 | normalised cell number | 1.05
Clc1ccc(CCC(Cn2ccnc2)Sc2c(Cl)cccc2Cl)cc1 (configuration not stated) | normalised cell number | 1.26
CCCC1=CC(=O)[C@H](O)[C@H]1O | normalised cell number | 1.02
C[C@@H]1CC2C3CCC4=CC(=O)C=C[C@]4(C)[C@@]3(F)[C@@H](O)C[C@]2(C)[C@@]1(O)C(=O)COP(=O)(O)O (some centres not stated) | normalised cell number | 1.11
CC1(C)CC[C@]2(C(=O)O)CC[C@]3(C)C(=CCC4[C@@]5(C)CC[C@H](O)[C@@](C)(CO)C5CC[C@]43C)C2C1 (some centres not stated) | normalised cell number | 1.05
CC(C)CCCC(C)C1CCC2C3=CC[C@H]4C[C@@H](O)CC[C@]4(C)C3CC[C@@]21C (some centres not stated) | normalised cell number | 1.1
CC1(C)O[C@@H]2CC3C4CCC5=CC(=O)C=C[C@]5(C)[C@@]4(F)[C@@H](O)C[C@]3(C)[C@]2(C(=O)CO)O1 (some centres not stated) | normalised cell number | 0.86
C[C@H](CCC(=O)O)[C@H]1CCC2C3C(=O)CC4CC(=O)CC[C@]4(C)C3CC(=O)[C@@]21C (some centres not stated) | normalised cell number | 1.21
O=C(O)c1ccccc1Nc1ccccc1 | normalised cell number | 1.09
O=C1C=CC(=O)c2c(O)c(Cl)c(Cl)c(O)c21 | normalised cell number | 1.04
CN(C)CC[C@H](c1ccc(Cl)cc1)c1ccccn1 | normalised cell number | 0.95
CC(=O)OCC(=O)[C@@]1(O)[C@H](C)CC2C3CCC4=CC(=O)C=C[C@]4(C)[C@@]3(F)[C@@H](O)C[C@@]21C (some centres not stated) | normalised cell number | 1.37
CC(=O)N[C@@H]1[C@@H](C(O)[C@H](O)CO)O[C@](O)(C(=O)O)C[C@@H]1O (some centres not stated) | normalised cell number | 1.19
COc1ccc2cc(C(C)=O)ccc2c1 | normalised cell number | 0.99
COc1ccc(-c2coc3cc(OC)ccc3c2=O)cc1 | normalised cell number | 1.34
